Measured values drawn from ChEMBL document CHEMBL5338796 for this set.

test system: BaF3; test: Antiproliferative activity against mouse BaF3 cells expressing Tel-FGFR4 assessed as cell growth inhibition measured after 72 hrs by celltiter-glo reagent based assay; type: functional; details: BaF3, 72 h
observedProperty: IC50

Request: State, in one line, measured IC50 of COc1cc(OC)c(Cl)c(NC(=O)N(C)c2cc(Nc3ccc(N4CCN(C(=O)C5CCN(c6ccc7c(c6)C(=O)N(C6CCC(=O)NC6=O)C7=O)CC5)CC4)cc3)ncn2)c1Cl (stereo unspecified)
Response: > 10 µM

###

test: Oral bioavailability in mouse at 10 mg/kg; assay type: ADME, organism-based; conditions: in vivo
observedProperty: bioavailability (%)
Numbers only here, please. The scale is %.

Request: State, in one line, measured bioavailability of COc1cc(OC)c(Cl)c(NC(=O)N(C)c2cc(Nc3ccc(N4CCN(CC(=O)N[C@H](C(=O)N5C[C@H](O)C[C@H]5C(=O)N[C@@H](C)c5ccc(-c6scnc6C)cc5)C(C)(C)C)CC4)cc3)ncn2)c1Cl
Response: 0.2

###

assay: Tmax in mouse at 20 mg/kg, po measured at 0.25 to 24 hrs by LC-MS/MS analysis; conditions: in vivo
observedProperty: Tmax
# output: numeric value plus its unit

Request: State, in one line, measured Tmax of COc1cc(OC)c(Cl)c(NC(=O)N(C)c2cc(Nc3ccc(N4CCN(C(=O)C5CCN(c6ccc7c(c6)C(=O)N(C6CCC(=O)NC6=O)C7=O)CC5)CC4)cc3)ncn2)c1Cl (stereo unspecified)
Response: 2.67 h

###

test: Cmax in mouse at 3 mg/kg, iv measured at 0.083 to 24 hrs by LC-MS/MS analysis; settings: in vivo
observedProperty: Cmax (ng/mL)
Numbers only here, please. The scale is ng/mL.

Request: State, in one line, measured Cmax of COc1cc(OC)c(Cl)c(NC(=O)N(C)c2cc(Nc3ccc(N4CCN(C(=O)C5CCN(c6ccc7c(c6)C(=O)N(C6CCC(=O)NC6=O)C7=O)CC5)CC4)cc3)ncn2)c1Cl (stereo unspecified)
Response: 655

###

tested on: BaF3; experiment: Antiproliferative activity against mouse BaF3 cells expressing Tel-FGFR2 assessed as cell growth inhibition measured after 72 hrs by celltiter-glo reagent based assay; format: functional; settings: BaF3, 72 h
observedProperty: IC50
# output: numeric value plus its unit

Request: State, in one line, measured IC50 of COc1cc(OC)c(Cl)c(NC(=O)N(C)c2cc(Nc3ccc(N4CCN(C(=O)C5CCN(c6ccc7c(c6)C(=O)N(C6CCC(=O)NC6=O)C7=O)CC5)CC4)cc3)ncn2)c1Cl (stereo unspecified)
Response: 10.3 nM

###

assay: Half life in Sprague-Dawley rat at 20 mg/kg, po measured at 0.25 to 24 hrs by LC-MS/MS analysis; assay type: ADME, organism-based; conditions: in vivo, time 0.25-24 hrs
observedProperty: half-life (h)
Numbers only here, please. The scale is h.

Request: State, in one line, measured half-life of COc1cc(OC)c(Cl)c(NC(=O)N(C)c2cc(Nc3ccc(N4CCN(C(=O)C5CCN(c6ccc7c(c6)C(=O)N(C6CCC(=O)NC6=O)C7=O)CC5)CC4)cc3)ncn2)c1Cl (stereo unspecified)
Response: 1.47

###

test: AUC (0 to infinity) in mouse at 20 mg/kg, po measured at 0.25 to 24 hrs by LC-MS/MS analysis; conditions: in vivo
observedProperty: AUC(0-inf) (ng·h/mL)
Numbers only here, please. The scale is ng·h/mL.

Request: State, in one line, measured AUC(0-inf) of COc1cc(OC)c(Cl)c(NC(=O)N(C)c2cc(Nc3ccc(N4CCN(C(=O)C5CCN(c6ccc7c(c6)C(=O)N(C6CCC(=O)NC6=O)C7=O)CC5)CC4)cc3)ncn2)c1Cl (stereo unspecified)
Response: 387
